system: IL-8; experiment: Glucocorticoid transrepression assay, IL-8 inhibition (TR); format: cell-based; conditions: Homo sapiens; Table 1; NCl-H292 cells, TNFα 10 ng/ml
pIC50: −log10 of the molar value.
metric: pIC50

Before answering, review these 6 worked examples.
{"columns": ["compound", "metric", "result"],
 "data": [
  ["CC12Cc3cnn(-c4ccc(F)cc4)c3C=C1CCC1C2[C@@H](O)CC2(C)C1CC[C@]2(O)C(=O)CSc1nc(-c2ccccc2)c(-c2ccccc2)o1 (stereo partly shown)", "pIC50", "6.40 to 7.18"],
  ["Cn1ncc2c1C=C1CCC3C([C@@H](O)CC4(C)C3CC[C@]4(O)C(=O)CSc3nc4ccccc4o3)C1(C)C2 (stereo partly shown)", "pIC50", "6.40 to 7.18"],
  ["CC12Cc3cnn(C4CCOCC4)c3C=C1CCC1C2[C@@H](O)CC2(C)C1CC[C@]2(O)C(=O)CSc1ccccn1 (stereo partly shown)", "pIC50", "7.70 to 10.22"],
  ["CC12Cc3cnn(-c4ccc(F)cc4)c3C=C1CCC1C2[C@@H](O)CC2(C)C1CC[C@]2(O)C(=O)CSc1ccccn1 (stereo partly shown)", "pIC50", "7.70 to 10.22"],
  ["CC12Cc3cnn(CCC#N)c3C=C1CCC1C2[C@@H](O)CC2(C)C1CC[C@]2(O)C(=O)CSc1ccccn1 (stereo partly shown)", "pIC50", "6.40 to 7.18"],
  ["Cn1ncc2c1C=C1CCC3C([C@@H](O)CC4(C)C3CC[C@]4(O)C(=O)CSc3cnc4ccccc4n3)C1(C)C2 (stereo partly shown)", "pIC50", "6.40 to 7.18"]
]}

In the following, a different compound is considered.
Req: Please report the recorded pIC50 for CC12Cc3cnn(-c4ccc(F)cc4)c3C=C1CCC1C2[C@@H](O)CC2(C)C1CC[C@]2(O)C(=O)CSc1nc2ccccc2s1 (stereo partly shown) .
Resp: 7.70 to 10.22
